protocol: Metabolic stability in human liver microsomes assessed as half life incubated for 60 mins by LC-MS/MS analysis
Type: ADME, Microsome
experimental readout: half-life

- Cc1cc(Nc2ncnc3ccc(NC(=O)/C=C/[C@H]4CCCN4C)cc23)ccc1Oc1ccn2ncnc2c1: > 116 h

---

Test system: NCI-N87
protocol: Antiproliferative activity against human NCI-N87 cells
Assay type: functional, cell-based
pIC50: −log10 of the molar value.
experimental readout: pIC50

• CCOc1cc2ncnc(Nc3ccc(Oc4ccn5ncnc5c4)c(C)c3)c2cc1NC(=O)/C=C/[C@H]1CCCN1C = 8.95
• CCOc1cc2ncnc(Nc3ccc(Oc4ccn5ncnc5c4)c(C)c3)c2cc1NC(=O)/C(F)=C/[C@H]1CCCN1C [SPH-5030] = 8.96

---

tested system: Receptor tyrosine-protein kinase erbB-2 (Homo sapiens, UniProt P04626)
Sequence (P04626 whole entry): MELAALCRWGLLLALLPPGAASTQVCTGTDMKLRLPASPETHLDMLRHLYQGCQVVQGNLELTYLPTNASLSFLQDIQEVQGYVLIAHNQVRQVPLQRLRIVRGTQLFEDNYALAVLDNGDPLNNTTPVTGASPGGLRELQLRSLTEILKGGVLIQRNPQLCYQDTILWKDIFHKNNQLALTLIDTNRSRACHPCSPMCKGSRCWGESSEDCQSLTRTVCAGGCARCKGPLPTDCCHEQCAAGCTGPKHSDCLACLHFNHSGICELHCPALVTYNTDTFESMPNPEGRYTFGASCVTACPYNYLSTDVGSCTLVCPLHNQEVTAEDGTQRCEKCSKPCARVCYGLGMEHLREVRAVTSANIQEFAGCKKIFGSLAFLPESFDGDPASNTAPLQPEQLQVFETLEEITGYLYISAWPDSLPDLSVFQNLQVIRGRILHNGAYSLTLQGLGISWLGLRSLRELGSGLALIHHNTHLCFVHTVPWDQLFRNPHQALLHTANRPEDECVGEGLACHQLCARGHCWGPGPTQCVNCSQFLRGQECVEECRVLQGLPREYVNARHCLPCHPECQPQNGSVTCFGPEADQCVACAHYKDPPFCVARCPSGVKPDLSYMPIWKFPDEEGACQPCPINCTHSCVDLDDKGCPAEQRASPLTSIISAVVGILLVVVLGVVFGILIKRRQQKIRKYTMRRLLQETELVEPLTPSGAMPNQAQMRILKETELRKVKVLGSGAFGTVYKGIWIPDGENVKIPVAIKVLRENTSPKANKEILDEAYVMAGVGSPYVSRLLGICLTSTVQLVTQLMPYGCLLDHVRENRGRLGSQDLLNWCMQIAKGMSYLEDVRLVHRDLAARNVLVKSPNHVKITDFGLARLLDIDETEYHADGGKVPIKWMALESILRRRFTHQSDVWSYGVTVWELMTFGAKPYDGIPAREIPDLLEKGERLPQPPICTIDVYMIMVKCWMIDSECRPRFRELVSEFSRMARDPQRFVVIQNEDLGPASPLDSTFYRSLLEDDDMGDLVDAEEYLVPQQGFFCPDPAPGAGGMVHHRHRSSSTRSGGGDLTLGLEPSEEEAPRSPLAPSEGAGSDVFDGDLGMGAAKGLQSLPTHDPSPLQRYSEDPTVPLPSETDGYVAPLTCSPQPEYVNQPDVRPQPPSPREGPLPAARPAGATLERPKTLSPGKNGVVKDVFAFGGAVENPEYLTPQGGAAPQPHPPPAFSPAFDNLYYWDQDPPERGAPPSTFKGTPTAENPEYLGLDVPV
protocol: Inhibition of flag-tagged HER2 (unknown origin) extracted from Escherichia coli
pIC50: −log10 of the molar value.
experimental readout: pIC50

- CN1CCN(CCCOc2ccc3ncnc(Nc4ccc(OCc5cccc(F)c5)c(Cl)c4)c3c2)CC1: 7.92

---

tested system: Receptor tyrosine-protein kinase erbB-2 (Homo sapiens, UniProt P04626, D769H)
Sequence (P04626 23-1255 D769H limits assumed): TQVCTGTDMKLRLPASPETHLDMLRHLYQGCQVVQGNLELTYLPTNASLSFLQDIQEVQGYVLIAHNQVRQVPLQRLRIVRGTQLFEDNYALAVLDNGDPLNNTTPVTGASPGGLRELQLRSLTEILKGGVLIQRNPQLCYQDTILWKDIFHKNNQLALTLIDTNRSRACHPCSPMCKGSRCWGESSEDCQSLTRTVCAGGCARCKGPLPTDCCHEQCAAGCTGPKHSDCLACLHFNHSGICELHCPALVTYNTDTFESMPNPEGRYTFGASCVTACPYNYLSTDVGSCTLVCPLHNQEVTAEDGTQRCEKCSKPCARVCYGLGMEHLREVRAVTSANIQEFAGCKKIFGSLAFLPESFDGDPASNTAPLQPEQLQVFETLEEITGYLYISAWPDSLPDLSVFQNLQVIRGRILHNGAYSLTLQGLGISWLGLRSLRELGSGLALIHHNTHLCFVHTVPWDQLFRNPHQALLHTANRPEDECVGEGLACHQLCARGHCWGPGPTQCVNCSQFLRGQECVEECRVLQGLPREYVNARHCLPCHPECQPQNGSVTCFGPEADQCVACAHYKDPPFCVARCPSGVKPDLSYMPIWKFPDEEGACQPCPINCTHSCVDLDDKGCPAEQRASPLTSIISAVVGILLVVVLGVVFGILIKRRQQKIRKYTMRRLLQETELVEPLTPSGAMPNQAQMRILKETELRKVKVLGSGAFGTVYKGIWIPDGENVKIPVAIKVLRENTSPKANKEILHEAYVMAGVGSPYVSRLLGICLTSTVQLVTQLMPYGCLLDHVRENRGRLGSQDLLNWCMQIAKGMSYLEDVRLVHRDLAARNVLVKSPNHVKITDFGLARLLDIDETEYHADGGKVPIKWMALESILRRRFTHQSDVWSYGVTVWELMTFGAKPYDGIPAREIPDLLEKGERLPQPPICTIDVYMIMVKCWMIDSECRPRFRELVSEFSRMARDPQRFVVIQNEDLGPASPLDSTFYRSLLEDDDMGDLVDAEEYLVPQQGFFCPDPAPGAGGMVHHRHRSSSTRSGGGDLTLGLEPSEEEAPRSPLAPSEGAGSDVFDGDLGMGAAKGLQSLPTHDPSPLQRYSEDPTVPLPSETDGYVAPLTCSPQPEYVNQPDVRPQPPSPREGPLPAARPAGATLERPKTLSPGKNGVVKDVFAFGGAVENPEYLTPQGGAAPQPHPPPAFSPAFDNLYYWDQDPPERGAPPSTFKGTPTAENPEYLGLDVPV
protocol: Inhibition of HER2 D769H mutant (unknown origin)
experimental readout: IC50

- CCOc1cc2ncnc(Nc3ccc(Oc4ccn5ncnc5c4)c(C)c3)c2cc1NC(=O)/C(F)=C/[C@H]1CCCN1C: < 1 nM

---

tested system: Epidermal growth factor receptor (Homo sapiens, UniProt P00533)
Sequence (P00533 whole entry): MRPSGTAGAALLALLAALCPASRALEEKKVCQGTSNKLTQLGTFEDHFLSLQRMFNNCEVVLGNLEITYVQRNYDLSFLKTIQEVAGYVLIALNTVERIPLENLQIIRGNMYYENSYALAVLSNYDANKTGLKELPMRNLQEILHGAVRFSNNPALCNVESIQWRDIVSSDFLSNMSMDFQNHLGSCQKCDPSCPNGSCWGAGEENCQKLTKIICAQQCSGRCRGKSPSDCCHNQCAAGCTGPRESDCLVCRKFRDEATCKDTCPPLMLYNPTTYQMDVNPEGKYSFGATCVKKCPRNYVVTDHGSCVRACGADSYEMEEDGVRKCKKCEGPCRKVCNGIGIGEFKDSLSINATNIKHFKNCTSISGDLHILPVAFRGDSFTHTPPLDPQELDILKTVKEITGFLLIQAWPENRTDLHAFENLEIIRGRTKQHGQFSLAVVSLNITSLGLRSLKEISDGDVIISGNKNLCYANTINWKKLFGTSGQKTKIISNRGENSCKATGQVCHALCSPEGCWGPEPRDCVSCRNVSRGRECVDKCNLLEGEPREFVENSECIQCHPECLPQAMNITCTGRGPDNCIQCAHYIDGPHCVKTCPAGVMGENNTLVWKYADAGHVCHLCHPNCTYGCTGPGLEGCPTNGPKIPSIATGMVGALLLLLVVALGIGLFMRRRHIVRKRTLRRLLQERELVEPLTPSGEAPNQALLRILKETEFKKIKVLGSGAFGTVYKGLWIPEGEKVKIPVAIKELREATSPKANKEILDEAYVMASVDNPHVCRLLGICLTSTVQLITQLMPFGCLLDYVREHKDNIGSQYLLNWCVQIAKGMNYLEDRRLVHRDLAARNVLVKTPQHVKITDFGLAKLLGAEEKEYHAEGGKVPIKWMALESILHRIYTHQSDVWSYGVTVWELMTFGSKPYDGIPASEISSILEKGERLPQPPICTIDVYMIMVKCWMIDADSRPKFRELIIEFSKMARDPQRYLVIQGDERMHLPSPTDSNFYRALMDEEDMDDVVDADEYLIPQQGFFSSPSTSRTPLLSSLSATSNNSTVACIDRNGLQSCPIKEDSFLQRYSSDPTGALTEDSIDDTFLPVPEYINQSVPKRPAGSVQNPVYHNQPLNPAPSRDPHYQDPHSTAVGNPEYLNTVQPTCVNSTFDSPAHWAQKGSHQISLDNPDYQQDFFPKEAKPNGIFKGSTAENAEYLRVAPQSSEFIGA
# IC50 values compiled below
experimental readout: IC50 (nM)

• Cc1cc(Nc2ncnc3ccc(NC(=O)/C=C/[C@H]4CCCN4C)cc23)ccc1Oc1cc2ncnn2cn1 = 1.19
• COCCOc1cc2ncnc(Nc3ccc(Oc4cccc5ccc(C)nc45)c(C)c3)c2cc1OCCOC = 12
• Cc1ccc2cccc(Oc3ccc(Nc4ncnc5ccc(NC(=O)C6CCCC6)cc45)cc3C)c2n1 = 2010
• COc1cc2ncnc(Nc3ccc(Oc4cccc5ccc(C)nc45)c(C)c3)c2cc1OC = 11
• CCOCCOc1cc2ncnc(Nc3ccc(OCc4ccccn4)c(Cl)c3)c2cc1NC(=O)/C=C/CN(C)C = 1.01
• CCOc1cc2ncc(C#N)c(Nc3ccc(Oc4ccn5ncnc5c4)c(C)c3)c2cc1NC(=O)/C=C/CN(C)C = 7.04

---

# pIC50 values compiled below
tested system: Receptor tyrosine-protein kinase erbB-2 (Homo sapiens)
protocol: Inhibition of HER2 (unknown origin)
pIC50: −log10 of the molar value.
experimental readout: pIC50

* Cc1ccc2cccc(Oc3ccc(Nc4ncnc5ccc(NC6CCCC6)cc45)cc3C)c2n1 | 8.10
* Cc1cc(Nc2ncnc3ccc(NC(=O)/C=C/[C@H]4CCCN4C)cc23)ccc1Oc1cc2ncnn2cn1 | 8.85
* C=CC(=O)N1CCC[C@@H](n2nc(C(=O)Nc3ccc(CC(=O)N(C)C)c(C)c3C)c3c(N)ncnc32)C1 | 7.79
* COc1cc2c(Nc3ccc(Oc4ccn5ncnc5c4)c(C)c3)ncnc2cc1OCCCN1CCN(CCCCCCCNc2ccc3c(c2)C(=O)N(C2CCC(=O)NC2=O)C3=O)CC1 (centres undefined) | 10.40
* COCCOc1cc2ncnc(Nc3ccc(Oc4cccc5ccc(C)nc45)c(C)c3)c2cc1OCCOC | 7.92
* CCOc1cc2ncnc(Nc3ccc(Oc4ccn5ncnc5c4)c(C)c3)c2cc1NC(=O)/C=C/[C@H]1CCCN1C | 8.78
* Cc1ccc2cccc(Oc3ccc(Nc4ncnc5ccc(NC(=O)C6CCCC6)cc45)cc3C)c2n1 | 6.50
* CCOc1cc2ncc(C#N)c(Nc3ccc(Oc4ccn5ncnc5c4)c(C)c3)c2cc1NC(=O)/C=C/CN(C)C | 8.66
